Values from patent US4510140A

I'd appreciate it if you could supply ED50 values for the items below.
System: passive cutaneous anaphylaxis
Test Description: PCA Test: passive cutaneous anaphylaxis induced in the rat with homologous antibodies (Goose and Blair); inhibition of spot areas
Assay type: in vivo
Experimental Parameters: Rattus norvegicus, po, read-out: PCA Test - ED50 (inhibition of spot areas)

Example results:
Cc1cccc(C)c1NC(=O)CCN1CCN(c2ccccn2)CC1 = 13 µmol/kg
Nc1ccc(NC(=O)CCN2CCN(c3ccccn3)CC2)cc1 = 74 µmol/kg

Lab note: next molecule to report on.
Input line: State its ED50 for this molecule: CC(=O)c1ccccc1NC(=O)CCN1CCN(c2ccccn2)CC1
Output line: 73 µmol/kg

* * *

Test Description: LD50 determined in the mouse (C. S. Weil method)
Set-up: unit not given here
Experimental Parameters: in vivo, ip
Reported Endpoint: LD50
Give bare numbers.

Example results:
CC(=O)c1ccccc1NC(=O)CCN1CCN(c2ccccn2)CC1 [compound 39] = 2.3
O=C(CCN1CCN(c2ccccn2)CC1)Nc1ccccc1Cl [compound 33] = 1.29
CC1CN(c2ccccn2)CCN1CCC(=O)Nc1ccc(N)cc1 (stereo not drawn) [compound 24] = 1.18
CCC(=O)Nc1ccc(NC(=O)CCN2CCN(c3ccccn3)CC2)cc1 [compound 11] = 1.05
CCOc1ccc(NC(=O)CCN2CCN(c3ccccn3)CC2)cc1 [compound 19] = 0.69
O=C(CCN1CCN(c2ccccn2)CC1)Nc1ccccc1[N+](=O)[O-] [compound 29] = 2.08

Lab note: next molecule to report on.
Input line: State its LD50 for this molecule: Cc1cc(C)c(C)c(NC(=O)CN2CCN(c3ccccn3)CC2)c1C [compound 2]
Output line: 0.65

* * *

I'd appreciate it if you could supply LD50 values for the items below.
Test Description: LD50 determined in the mouse (C. S. Weil method)
Design: unit not given here
Experimental Parameters: in vivo, po, os
One number for each entry.

Example results:
Nc1ccccc1NC(=O)CCN1CCN(c2ccccn2)CC1 [compound 22] = 2.08
O=C(CCN1CCN(c2ccccn2)CC1)Nc1ccc(O)cc1 [compound 20] = 5.2

Working through the 3 molecules below one at a time, give LD50 for each.
1. COc1ccc(NC(=O)CCN2CCN(c3ccccn3)CC2)cc1 [compound 3]
2. COc1cccc(N2CCN(CCC(=O)Nc3ccc(N)cc3)CC2)n1 [compound 25]
3. COc1cccc(N2CCN(CCC(=O)Nc3ccccc3N)CC2)n1 [compound 38]

Output line:
1. 1.16
2. 1.6
3. 0.67

Working through the 6 molecules below one at a time, give LD50 for each.
1. CC(=O)c1cccc(NC(=O)CCN2CCN(c3ccccn3)CC2)c1 [compound 40]
2. CC(=O)c1ccc(OCc2ccccc2)c(NC(=O)CCN2CCN(c3ccccn3)CC2)c1 [compound 5]
3. O=C(CCN1CCN(c2ccccn2)CC1)Nc1cccc([N+](=O)[O-])c1 [compound 4]
4. CCC(=O)Nc1ccc(NC(=O)CCN2CCN(c3ccccn3)CC2)cc1 [compound 11]
5. O=C(CCN1CCN(c2ccccn2)CC1)Nc1ccc(Cl)cc1 [compound 35]
6. O=C(CCN1CCN(c2ccccn2)CC1)Nc1cccc(C(F)(F)F)c1 [compound 37]

Output line:
[1.11, 1.21, 2.07, 1.53, 0.96, 1.17]

* * *

Test Description: LD50 determined in the mouse (C. S. Weil method)
Design: unit not given here
Experimental Parameters: in vivo, ip
Reported Endpoint: LD50
Give bare numbers.

Example results:
O=C(CCN1CCN(c2ccccn2)CC1)Nc1ccccc1 = 1.16
O=C(CCN1CCN(c2ccccn2)CC1)Nc1ccc(Cl)cc1 = 0.62
O=C(CCN1CCN(c2ccccn2)CC1)Nc1c(Cl)cccc1Cl = 0.8

Lab note: next molecule to report on.
Input line: State its LD50 for this molecule: O=C(CCN1CCN(c2ccccn2)CC1)Nc1cccc([N+](=O)[O-])c1
Output line: 0.42
